Listed here are binders together with their documented Kd.
target: T1, human TfR ectodomain fused to a mouse IgG1 Fc fragment (human, UniProt P02786 89-760); assay: SPR, kinetic
T1 construct: extracellular domain; ectodomain fused to the N-terminal end of the Fc, made in-house; not shown: mouse IgG1 Fc fragment
T1 sequence (P02786 89-760): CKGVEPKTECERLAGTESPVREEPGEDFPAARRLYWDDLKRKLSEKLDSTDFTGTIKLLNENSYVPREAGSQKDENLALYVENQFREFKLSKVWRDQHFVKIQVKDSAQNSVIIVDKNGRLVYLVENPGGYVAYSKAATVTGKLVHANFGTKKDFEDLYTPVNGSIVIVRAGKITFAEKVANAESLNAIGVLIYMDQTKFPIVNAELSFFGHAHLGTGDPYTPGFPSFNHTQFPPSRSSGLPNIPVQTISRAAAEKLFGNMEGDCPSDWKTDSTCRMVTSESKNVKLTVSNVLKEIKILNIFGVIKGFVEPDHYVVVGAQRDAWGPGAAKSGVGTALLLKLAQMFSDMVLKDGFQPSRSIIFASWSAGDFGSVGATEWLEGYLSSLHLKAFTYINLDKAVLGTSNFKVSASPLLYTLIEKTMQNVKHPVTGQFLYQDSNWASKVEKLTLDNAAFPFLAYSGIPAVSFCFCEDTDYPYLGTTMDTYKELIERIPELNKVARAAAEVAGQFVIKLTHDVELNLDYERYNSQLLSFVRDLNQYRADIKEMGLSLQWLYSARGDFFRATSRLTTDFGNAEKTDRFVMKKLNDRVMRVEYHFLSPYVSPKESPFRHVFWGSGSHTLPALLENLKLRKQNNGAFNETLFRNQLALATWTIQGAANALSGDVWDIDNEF

[
  {
    "BINDER": "B7 (VHH) VHH: QVQLVQSGGGLVQAGGSLTLSCTASGRPLSDYPMGWFRRAPEKERELVASISRTGDGTYYADGMRGRFTISRDNSENTVSLQMNNLKPEDTAVYYCGAGINPTKYWGQGTQVTVSS",
    "Kd / nM": 0.652
  },
  {
    "BINDER": "C5^V30 (VHH) VHH: EVQLVESGGGVVQPGGSLKLSCVASGTDKSINFIRWYRQAPGKQREFVAGFTATGNTNYADSMKGRFTISRDNTKNAVYLQIDSLKPEDTAVYYCYMLDKWGQGTQVTVSS",
    "Kd / nM": 94
  },
  {
    "BINDER": "F2a (VHH) VHH: EVQLVESGGGLVQPGESLRLSCTASESISIYGVGWYRQAPGEQRVLVAHLKRNGLTEYKDSVKGRFTISRDNARNTIYLEMKNLKPEDTAIYYCNTALGSVLPWGRGTQVTVSS",
    "Kd / nM": 0.545
  },
  {
    "BINDER": "B8^V3 (VHH) VHH: EVQLVESGGGVVQPGGSLRLSCAASGEIFSINFMRWYREAPGKQREWVAGFTRDGSTNYPDSAKGRFTISRDNAKNTVYLQIDSLKPEDTAVYYCYMLDTWGQGTQVTVSS",
    "Kd / nM": 0.505
  },
  {
    "BINDER": "B8^V39 (VHH) VHH: EVQLVESGGGVVQPGGSLRLSCAASGEIFKINFMRWYRQAPGKQREWVAGFTRDGSTNYPDSAKGRFTISRDNAKNTVYLQIDSLKPEDTAVYYCYMLDTWGQGTQVTVSS",
    "Kd / nM": 39.1
  },
  {
    "BINDER": "C5^h18 (VHH) VHH: EVQLVESGGGVVQPGGSLKLSCVASGTDFSINFIRWYRQAPGKGLEFVAGFTATGNTNYADSVKGRFTISRDNAKNTLYLQMNSLRPEDTAVYYCYMLDKWGQGTQVTVSS",
    "Kd / nM": 30.9
  },
  {
    "BINDER": "B8^V36 (VHH) VHH: EVQLVESGGGVVQPGGSLRLSCAASGEIFSINVMRWYRQAPGKQREWVAGFTRDGSTNYPDSAKGRFTISRDNAKNTVYLQIDSLKPEDTAVYYCYMLDTWGQGTQVTVSS",
    "Kd / nM": 33.3
  },
  {
    "BINDER": "B8^h1 (VHH) VHH: EVQLVESGGGVVQPGGSLRLSCAASGEIFSINFMRWYRQAPGKGLEWVAGFTRDGSTNYPDSVKGRFTISRDNAKNTVYLQMNSLRPEDTAVYYCYMLDTWGQGTQVTVSS",
    "Kd / nM": 0.212
  },
  {
    "BINDER": "B8^V1 (VHH) VHH: EVQLVESGGGVVQPGGSLRLSCAADGEIFSINFMRWYRQAPGKQREWVAGFTRDGSTNYPDSAKGRFTISRDNAKNTVYLQIDSLKPEDTAVYYCYMLDTWGQGTQVTVSS",
    "Kd / nM": 6.04
  },
  {
    "BINDER": "B8^V38 (VHH) VHH: EVQLVESGGGVVQPGGSLRLSCAASGEIRSINFMRWYRQAPGKQREWVAGFTRTGSTNYPDSAKGRFTISRDNAKNTVYLQIDSLKPEDTAVYYCYMLDTWGQGTQVTVSS",
    "Kd / nM": 32.2
  },
  {
    "BINDER": "VHH A11 (C5^V11) (VHH) VHH: EVQLVESGGGVVQPGGSLKLSCVASGTDFSINYIRWYRQAPGKQREFVAGFTATGNTNYADSMKGRFTISRDNTKNAVYLQIDSLKPEDTAVYYCYMLDKWGQGTQVTVSS",
    "Kd / nM": 0.395
  },
  {
    "BINDER": "VHH D (H3) (VHH) VHH: EVQLVESGGGEVQPGGSLKLSCVASGTDFSINFVRWYRQRPGKQREWVAGFTANGDTNYPDSMKGRFTISRDNAKNTVYLQINSLKSEDTAVYYCYMLDNWGQGTQVTVSS",
    "Kd / nM": 0.0333
  },
  {
    "BINDER": "H7 (VHH) VHH: EVQLVESGGGLVQAGGSLRLSCTASGRPISDYPMGWFRRAPGKDRELVASISRTGDGTYYANSMKERFTISRDNAQNTVSLQISSLKPEDTAVYYCGAGINPTRYWGQGTQVTVSS",
    "Kd / nM": 1.3
  },
  {
    "BINDER": "B8^V29 (VHH) VHH: EVQLVESGGGVVQPGGSLRLSCAASGEIFSINFMRWYRQAPGKQREWVAGFTRDGSTNYPDSAKGRFTISRDNAKNTVYLQIDSLKPEDTAVYYCYMADTWGQGTQVTVSS",
    "Kd / nM": 44
  },
  {
    "BINDER": "B8^V35 (VHH) VHH: EVQLVESGGGVVQPGGSLRLSCAASGEIRSINFMRWYRQAPGKQREWVAGFTRDGSLNYPDSAKGRFTISRDNAKNTVYLQIDSLKPEDTAVYYCYMLDTWGKGTQVTVSS",
    "Kd / nM": 20.6
  },
  {
    "BINDER": "C10a (VHH) VHH: EVQLVESGGGLVQAGDSLRLSCAASGFASHLYAIGWFRQAPGKEREKVSCISSNDGSTYYADSVKGRFTISRDTVKDMVYLQMNSLKPEDTAVYYCATDLTVHCFMAEYDWWGQGTQVTVSS",
    "Kd / nM": 44.6
  }
]

Ref: patent US20230414780A1
